- assay.name: rat acute oral toxicity
- condition.summary: in vivo
In this scheme, each record receives a class according to its LD50; the ranges are lower segment: < 500 mg/kg; middle segment: ≥ 500 mg/kg and < 2000 mg/kg; upper segment: ≥ 2000 mg/kg

| compound | group.label |
| --- | --- |
| CCNc1nc(NC(C)C)nc(SC)n1 | middle segment |

The entry to classify is Oc1cc(Cl)c(Cl)cc1Cl ; which class holds it?
middle segment

----------
- assay.name: GHS categories as the set defines them, by LD50: 1 up to 5, 2 up to 50, 3 up to 300, 4 up to 2000, 5 above 2000 mg/kg
- condition.summary: rat; in vivo; po
- From the text: […]The data set underlying the modeling effort for this project was initially compiled by NICEATM and U.S. EPA’s CCTE. Briefly, LD50 data were collected from rat acute oral systemic toxicity tests, including limit tests, ranges/confidence intervals, and discrete LD50 values. The full data set included 21,200 LD50 entries for 15,688 substances. […]
Listed compounds paired with reported GHS category
Answer as a number with no unit attached.

| compound | quantitative.result |
| --- | --- |
| CCCCCCCC(=O)OCCC(C)O (stereo not given) | 2 |
| CC(O)C1=CCC(C(C)(C)O)CC1O (stereo not given) | 5 |
| CCn1cc[n+](C)c1 | 5 |
| CCCN(CCC)c1c([N+](=O)[O-])cc(S(N)(=O)=O)cc1[N+](=O)[O-] | 5 |
| CC(C)OC(=O)C(C)(C)Oc1ccc(C(=O)c2ccc(Cl)cc2)cc1 | 5 |

The value of GHS category measured for the compound CCCCCCCC/C=C\CCCCCCCCCCCC(N)=O turned out to be 5

Reported GHS category ( Cn1c(=O)n(-c2ccccc2)c2cc(Cl)ccc21 ) = 4

Entry N#Cc1ccc(NC(=O)Oc2ccccc2)cc1 , GHS category reported as 5

Entry under test: CCC(C)(C)OC(=O)N[C@@H](Cc1c[nH]c2ccccc12)C(=O)N[C@@H](CCSC)C(=O)N[C@@H](CC(=O)O)C(=O)N[C@@H](Cc1ccccc1)C(N)=O . Its GHS category was 5

Record summary for OCC1=C[C@H](N[C@H]2C[C@H](CO)[C@@H](O[C@@H]3O[C@H](CO)[C@@H](O)[C@H](O)[C@H]3O)[C@H](O)[C@H]2O)[C@H](O)[C@@H](O)[C@@H]1O : reported GHS category = 5
